target: T1, Human c-Met-Flis-Fc ECD (human); assay: ELISA, coated ECD-Fc, antibody 12.860 ng/mL
T1 construct: also called human c-Met extracellular domain (ECD)-Fc-Flis fusion; Human cMet-ECD-Fc-Flis
T1 sequence (chain, as listed by the source limits assumed): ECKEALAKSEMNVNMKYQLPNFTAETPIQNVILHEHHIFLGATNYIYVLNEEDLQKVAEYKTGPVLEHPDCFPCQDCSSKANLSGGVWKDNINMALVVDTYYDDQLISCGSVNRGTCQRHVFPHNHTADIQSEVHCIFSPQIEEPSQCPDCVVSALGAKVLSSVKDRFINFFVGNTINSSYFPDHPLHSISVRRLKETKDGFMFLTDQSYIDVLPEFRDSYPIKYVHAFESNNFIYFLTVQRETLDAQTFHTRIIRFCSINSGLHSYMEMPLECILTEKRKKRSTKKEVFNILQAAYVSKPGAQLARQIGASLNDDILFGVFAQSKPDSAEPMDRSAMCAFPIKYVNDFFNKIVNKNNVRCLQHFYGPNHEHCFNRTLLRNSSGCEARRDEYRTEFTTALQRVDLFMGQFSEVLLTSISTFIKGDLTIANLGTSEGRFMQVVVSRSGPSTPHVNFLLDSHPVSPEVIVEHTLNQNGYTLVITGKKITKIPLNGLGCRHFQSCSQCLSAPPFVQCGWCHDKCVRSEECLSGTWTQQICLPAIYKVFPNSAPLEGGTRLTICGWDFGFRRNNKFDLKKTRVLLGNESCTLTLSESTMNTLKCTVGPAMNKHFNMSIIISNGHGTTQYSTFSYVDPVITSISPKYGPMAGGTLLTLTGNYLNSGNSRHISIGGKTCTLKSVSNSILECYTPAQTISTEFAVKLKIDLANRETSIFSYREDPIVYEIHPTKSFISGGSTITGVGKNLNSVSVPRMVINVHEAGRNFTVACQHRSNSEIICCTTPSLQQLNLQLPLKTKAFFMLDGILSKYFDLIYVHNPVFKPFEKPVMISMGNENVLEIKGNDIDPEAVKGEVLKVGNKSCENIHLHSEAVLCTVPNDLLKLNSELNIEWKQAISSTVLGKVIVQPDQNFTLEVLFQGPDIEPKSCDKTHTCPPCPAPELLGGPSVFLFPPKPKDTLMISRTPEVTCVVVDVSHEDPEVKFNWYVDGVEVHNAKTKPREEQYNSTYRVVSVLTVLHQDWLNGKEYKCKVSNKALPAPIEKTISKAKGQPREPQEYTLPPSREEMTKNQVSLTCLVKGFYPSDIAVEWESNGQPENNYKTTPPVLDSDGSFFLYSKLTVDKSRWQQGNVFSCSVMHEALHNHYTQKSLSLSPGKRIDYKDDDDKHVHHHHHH

Binder: D11-C27G3 (antibody, human IgG2, kappa, V domains shown, Human engineered IgG2, kappa; also called D11-27G3) VH: QVQLVQSGAEVKKPGSSVKVSCKASGYTFTSRYIHWVRQAPGQGLEWMGWIYPVTGDTYYREPFKGRVTITADKSTSTAYMELSSLRSEDTAVYYCARGYGAFYYWGQGTLVTVSS VL: EIVLTQSPGTLSLSPGERATLSCSVSSSISSTNLHWYQQKPGQAPRLLIYGTSRLRSGIPDRFSGSGSGTDFTLTISRLEPEDFAVYYCQQWSSYPYSFGQGTKLEIKR
Average A450 nm: 4 A450 nm
//
Binder: D11-S17Y (antibody, human IgG2, kappa, V domains shown, Human engineered IgG2, kappa) VH: QVQLVQSGAEVKKPGSSVKVSCKASGYTFTSRYIHWVRQAPGQGLEWMGWIYPVTGDTYYNEKFKGRVTITADKSTSTAYMELSSLRSEDTAVYYCARGYGAFYYWGQGTLVTVSS VL: EIVLTQSPGTLSLSPGERATLSCSVSSSISSTNLHWYQQKPGQAPRLLIYGTSYLASGIPDRFSGSGSGTDFTLTISRLEPEDFAVYYCQQWSSYPYSFGQGTKLEIKR
Average A450 nm: 4 A450 nm
